Measured Relative SLC25A13 level vs Untreated (±Standard Deviation) values are reported for all entries that follow.
system: SLC25A13; assay: RNA-seq of compound-treated primary human hepatocytes, SLC25A13 expression; format: cell-based; conditions: 10 μM, primary human hepatocytes, triplicate (Table 23, FIG. 15)
Structures can show the parent of a compound that is named as a salt.
# output: bare number, no unit

CCNC(=O)c1noc(-c2cc(C(C)C)c(O)cc2O)c1-c1ccc(CN2CCOCC2)cc1 | 1.55
COc1cccc2cc(-c3nc([C@H]4CC[C@H](C(=O)O)CC4)n4ncnc(N)c34)[nH]c12 | 1.52
C=CCNC1=C2C[C@@H](C)C[C@H](OC)[C@H](O)[C@@H](C)/C=C(\C)[C@H](OC(N)=O)[C@@H](OC)/C=C\C=C(/C)C(=O)NC(=CC1=O)C2=O | 1.46
COc1ccc(-c2ccc3c(N4CCOC[C@@H]4C)nc(N4CCOC[C@@H]4C)nc3n2)cc1CO [AZD8055] | 1.54
COc1ccc(-c2ccc3c(N4CCOC[C@@H]4C)nc(N4CCOC[C@@H]4C)nc3n2)cc1CO [AZD-8055] | 1.64

Exam item: Form: Entry = C=CCNc1c(O)cc2c(O)c1C[C@@H](C)C[C@H](OC)[C@H](O)[C@@H](C)/C=C(\C)[C@H](OC(N)=O)[C@@H](OC)/C=C\C=C(/C)C(=O)N2 [Retaspimycin Hydrochloride] | System = SLC25A13 | Relative SLC25A13 level vs Untreated (±Standard Deviation) = ____
Marked response: 1.45

Exam item: Param item: `O=C1CCc2c(Oc3ccc4c(c3)[C@@H]3[C@H](O4)[C@H]3c3nc4ccc(C(F)(F)F)cc4[nH]3)ccnc2N1`
Marked response: 1.92

Exam item: Param item: `CCNC(=O)Nc1ccc(-c2nc(N3CCOC[C@@H]3C)c3c(n2)C(C)(C)S(=O)(=O)C3)cc1`
Marked response: 1.52

----------
Measured Max Value (OTC/GeoMean of HKs; DMSO = 1) values are reported for all entries that follow.
test system: OTC; assay: OTC expression modulated by compounds, OTC/GeoMean of housekeeping genes, DMSO = 1 (Table 3A); format: cell-based, human; conditions: 10 uM final concentration
# output: bare number, no unit

Exam item: Value lookup for Max Value (OTC/GeoMean of HKs; DMSO = 1); key = `CNC(=O)c1ccc(C)c(-n2c(C)cc(OCc3ccc(F)cc3F)c(Br)c2=O)c1`
Marked response: 1.53

Exam item: Param item: `CSCC[C@H](N)C(=O)N[C@@]1(C(=O)O)CS(=O)(=O)[C@H]2[C@H](C(=O)O)[C@H]21`
Marked response: 1.49

Exam item: Param item: `CN(c1ncccc1CNc1nc(Nc2ccc3c(c2)CC(=O)N3)ncc1C(F)(F)F)S(C)(=O)=O`
Marked response: 3.3

Exam item: Param item: `N#CC(C#N)=NNc1cccc(Cl)c1`
Marked response: 4.06

Exam item: Param item: Cl.Cn1c(=O)c(Oc2ccc(F)cc2F)cc2cnc(NC3CCOCC3)nc21 [R1487 Hydrochloride]
Marked response: 1.64

Exam item: Param item: `COc1cccc2c1C(=O)c1c(O)c3c(c(O)c1C2=O)C[C@@](O)(/C(CO)=N/NC(=O)CCCCCN1C(=O)C=CC1=O)C[C@@H]3O[C@H]1C[C@H](N)[C@H](O)[C@H](C)O1`
Marked response: 2.36

Exam item: Param item: `Cc1cc(Nc2cc(CN3CCOCC3)c3nc(C)c(Cc4ccc(Cl)cc4F)n3n2)n[nH]1`
Marked response: 2.78

----------
tested on: ARG1; test: RNA-seq of compound-treated primary human hepatocytes, ARG1 expression; assay type: cell-based; conditions: 3 μM, primary human hepatocytes, triplicate (Table 17, FIG. 9)
Measured Relative ARGI level vs Untreated (±Standard Deviation) values are reported for all entries that follow.
# output: bare number, no unit

For orientation, consider the following solved cases.
COc1ccc(-c2ccc3c(N4CCOC[C@@H]4C)nc(N4CCOC[C@@H]4C)nc3n2)cc1CO [AZD8055] | 1.42
O=C(NCCCNc1nc(Nc2cccc(NC(=O)N3CCCC3)c2)ncc1I)c1cccs1 [BX795] | 1.33
Cc1cc(-c2nc(-c3ccc(OC(F)(F)F)cc3)no2)nn1Cc1ccnc(N2CCN(C3CC3)CC2)c1 [BAY 87-2243] | 2.06
CCn1c(=O)c(-c2cc[nH]n2)cc2c(C)nc(N)nc21 [Voxtalisib] | 1.34
CCNC(=O)Nc1ccc(-c2nc(N3CCOC[C@@H]3C)c3c(n2)C(C)(C)S(=O)(=O)C3)cc1 [CZ415] | 1.35
CC(=O)NCC(=O)N1[C@@H]2CC[C@H]1c1ccc(Nc3ncc(C(F)(F)F)c(NC4CCC4)n3)cc12 [PF-3814735] | 2.45

Exam item: Value lookup for Relative ARGI level vs Untreated (±Standard Deviation); key = CC(C)c1cc(CNc2nc(Nc3cc(C4CC4)[nH]n3)cc(N3CCN(C)CC3)n2)on1 [XL228]
Marked response: 2.15

Exam item: Param item: COc1ccc(-c2ccc3c(N4CCOC[C@@H]4C)nc(N4CCOC[C@@H]4C)nc3n2)cc1CO [AZD-8055]
Marked response: 1.36

Exam item: Param item: COc1cc2c(Oc3ccc(NC(=O)C4(C(=O)Nc5ccc(F)cc5)CC4)cc3F)ccnc2cc1OCCCN1CCOCC1 [Foretinib]
Marked response: 1.40

Exam item: Param item: NC(=O)c1ccc(I)c([N+](=O)[O-])c1 [Iniparib]
Marked response: 1.32

Hello, the source for this data is patent US11266655B2, in case you need it.
